# TARGET_OR_TEST_SYSTEM: NAD-dependent protein deacetylase sirtuin-3, mitochondrial (Homo sapiens)
# Sequence (Q9NTG7 whole entry): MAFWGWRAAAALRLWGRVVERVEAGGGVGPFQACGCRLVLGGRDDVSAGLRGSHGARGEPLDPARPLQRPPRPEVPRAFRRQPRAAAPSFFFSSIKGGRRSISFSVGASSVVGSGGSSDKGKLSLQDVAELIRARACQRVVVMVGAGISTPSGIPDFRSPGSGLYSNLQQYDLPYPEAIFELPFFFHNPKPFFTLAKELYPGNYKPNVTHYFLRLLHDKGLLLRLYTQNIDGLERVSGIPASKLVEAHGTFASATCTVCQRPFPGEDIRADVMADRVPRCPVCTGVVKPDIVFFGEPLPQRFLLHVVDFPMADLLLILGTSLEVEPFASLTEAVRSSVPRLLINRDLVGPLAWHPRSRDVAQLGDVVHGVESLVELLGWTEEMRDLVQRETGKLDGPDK
# EXPERIMENTAL_PROTOCOL: Activation of recombinant human SIRT3 assessed as lysyl deacetylase activity using (Gln-Pro-Lys-Lys(Ac)) peptide substrate by fluorescent assay
Hi there, I'd appreciate the recorded EC50 for every entry that follows.
Numbers only, in µM.

[
  {
    "MOL": "CCCCNC(=O)CCCOc1ccc(C(=O)c2c(CCCC)oc3ccccc23)cc1",
    "EC50 (µM)": 16.7
  },
  {
    "MOL": "CCCCc1oc2ccccc2c1C(=O)c1ccc(OCC(=O)N2CCOCC2)cc1",
    "EC50 (µM)": 1.23
  },
  {
    "MOL": "CCCCc1oc2ccccc2c1C(=O)c1ccc(OCCCC(=O)N2CCOCC2)cc1",
    "EC50 (µM)": 3.02
  },
  {
    "MOL": "C=CCc1ccc(O)c(-c2ccc(O)c(CC=C)c2)c1",
    "EC50 (µM)": 0.17
  }
]

# input for lookup
Problem: Form entry - test system: NAD-dependent protein deacetylase sirtuin-3, mitochondrial (Homo sapiens); read-out: EC50; molecule: CCCCc1oc2ccccc2c1C(=O)c1ccc(OCC(=O)N[C@H](C)c2ccccc2)cc1
Result: 17.4

From: ChEMBL document CHEMBL4837260
